This collection of values is drawn from PubChem BioAssay.

target: Luciferin 4-monooxygenase (Photinus pyralis); assay: firefly luciferase enzyme inhibitors, primary screen, biochemical, luminescence, purified enzyme, 2006 set (AID 1141); details: SteadyGlo luminescence, 30 min, higher = more signal, called active from +8 up or from −8 down;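 further: cell-free assay with purified firefly luciferase at 100 ng per well in PBS; test concentration not given here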
// reported z-score per item
Would you mind answering with just the numeric figure?

1. CCOC(=O)NN=C1C[C@@H](O)[C@@H](O)[C@@H]2[C@@H]3C(=O)N([C@@H](C)c4ccccc4)C(=O)[C@@H]3CC[C@H]12	0.846
2. CC(=O)OC[C@H]1OC(ON=CC[C@@H]2C=C[C@H](OC(C)=O)[C@@H](COC(C)=O)O2)[C@H](OC(C)=O)[C@@H](OC(C)=O)[C@@H]1OC(C)=O (some centres not stated)	1.11
3. COC(=O)CC=C[C@H](C)[C@@H](OCc1cccc(Br)c1)[C@@H](C)[C@H](OC)C1CCCCC1	-3.27
4. CCCCC#C[C@@H]1C=C[C@H](OC(C)=O)[C@@H](COC(C)=O)O1	-1.41
5. CCOC(=O)[C@H](CC(C)C)NC(=O)CCC1CC(OC(=O)NCc2cccc3ccccc23)CC2(CCCC(COC(=O)NCCc3ccc(Cl)cc3)O2)O1 (some centres not stated)	0.226
6. C=CC[C@@H]1C=C[C@H](ON=C(C)CCN2CCc3nc(-c4ccccc4)c(-c4ccccc4)cc3C2)[C@@H](CO)O1	-0.118

Lab note: next molecule to report on.
// query Identify measured z-score corresponding to CCCCC#C[C@@H]1C=C[C@H](Oc2cc(OC)c(OC)c(OC)c2)[C@@H](COC(=O)OCC)O1
// result -1.12

----------
test system: Wnt5a (protein binding on small-molecule microarray); assay: Wnt5a binders on small-molecule microarray, primary screen, biophysical, 635/667 nm fluorescence (AID 1142); conditions: 635 nm fluorescence, higher = more signal;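 further: fluorescence read at 667 nm with signal to noise per printed feature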
Quick rule: composite z-score of at least 0.2 means t, below that means f.

1. CCOC(=O)[C@H](CC(C)C)NC(=O)CCC1CC(OC(=O)NCCc2ccc(F)cc2)CC2(CCCC(COC(=O)NCC(c3ccccc3)c3ccccc3)O2)O1 (some centres undefined)	t

// query // inclusive: composite z-score at least 0.2? input: COC(=O)[C@@H]1CC[C@H](C)[C@@H](c2ccc(C)cc2)N1C(=O)c1ccc(C=NOC[C@@H](C)[C@H](OCc2ccccc2)C(C)C)cc1
// result f

// query Is the recorded value of composite z-score equal to or greater than 0.2 for this compound? C[C@@H]1CC[C@H]2C(=O)O[C@@H](COc3ccc(C(C)(C)C)cc3)CN2[C@@H]1c1ccc(Br)cc1
// result f

// query Tell me whether composite z-score is at least 0.2 here: CCOC(=O)[C@H](Cc1ccccc1)NC(=O)CCC1CC(OC(=O)NCc2cccc3ccccc23)CC2(CCCC(COC(=O)NCC(c3ccccc3)c3ccccc3)O2)O1 (some centres undefined)
// result f

// query Does the compound CC=CC1=C(CO)C(=O)[C@@H]2O[C@@H]2C1=O have recorded composite z-score that is 0.2 or more?
// result f

// query Determine whether this compound has composite z-score no lower than 0.2: CCc1cc2c(nc1CC)CCN(CCC(C)=NO[C@H](C)c1cn([C@H](CO)Cc3ccccc3)nn1)C2
// result f

// query Item COC(=O)[C@H](C)NC(=O)CCC1CC(OC(=O)NCc2ccc3c(c2)OCO3)CC2(CCCC(COC(=O)NCCc3ccccc3OC)O2)O1 (some centres undefined) with composite z-score of 0.2 or above?
// result f

// query Reported composite z-score reaches at least 0.2 for CC(C)CON=C1C[C@@H](O)[C@@H](O)[C@@H]2[C@@H]3C(=O)N(C[C@@H]4CCCO4)C(=O)[C@@H]3CC[C@@H]12 ?
// result f
